Test system: HOP-92 NSCLC
Test: NCI-60 one-dose screen, 48 h (100 = growth as untreated, 0 = no growth, -100 = all killed)
Conditions: 10 µM unless noted
Protocol: Growth inhibition of the HOP-92 human Non-Small Cell Lung tumor cell line is measured as a screen for anti-cancer activity. Cells are grown in 96 well plates and exposed to the test compound for 48 hours. Compounds are tested at a single concentration, which is 10^-5 M for most compounds. The reported endpoint is percent growth (GI% or GIPRCNT), where numbers from 0 - 100% represent growth inhibition, and numbers from -100% - 0 represent cell death. […]
About 83,000 compounds went through this panel and 20% of them were active in at least one assay; those are over-represented in the sample as a whole.
Measured growth, listed per entry for reference.
Express the result in % but write the number alone.

Consider the worked cases shown below.
{"compound": "C=C(CNCCc1ccc(O)cc1)[C@@H]1CC[C@]2(CO)CC[C@]3(C)[C@H](CC[C@@H]4[C@@]5(C)CCC(=O)C(C)(C)[C@@H]5CC[C@]43C)[C@@H]12", "growth [%]": 35.1}
{"compound": "Fc1cc(Nc2ccc3c(OCCCN4CCOCC4)cccc3n2)ccc1Cl", "growth [%]": 27.3}
{"compound": "CSc1nn2c(-c3ccc4ccccc4c3)ccnc2c1C#N", "growth [%]": 33.8}
{"compound": "Cn1c(=O)c2[nH]c(SCC(=O)Nc3ccc(C(=O)/C=C/c4ccccc4Cl)cc3)nc2n(C)c1=O", "growth [%]": 65}
{"compound": "N#Cc1ccc(O)c(C2=NCC(Cc3ccccc3)O2)c1 (stereo not drawn)", "growth [%]": 65}

-- ask Given the compound "C=C1CC[C@@H]2C(C)(C)[C@@H](O)CC[C@@]2(C)[C@@H]1COc1ccc2ccc(=O)oc2c1" , what is its reported growth?
-- reply 86.8

-- ask // query growth value for entry CNC1=C([N+](=O)[O-])C(c2ccc(OC)cc2)C(C#N)=C(c2cccs2)O1 (stereo not drawn)
-- reply 125

* * *

We begin with a simple list: items and their reported growth.
tested on: HCC-2998 colon; experiment: NCI-60 one-dose screen, 48 h (100 = growth as untreated, 0 = no growth, -100 = all killed); conditions: 10 µM unless noted
The panel holds about 83,000 compounds, 20% with a hit somewhere; the sample as a whole holds those more often.
Provide only the numeric value, understood in %.

{"structure string": "Cc1ccc(-c2nc(SCc3nc4cc(Cl)c(Cl)cc4[nH]3)[nH]c(=O)c2C#N)cc1", "measured on": "HCC-2998 colon", "growth, %": 110}
{"structure string": "CCN(CC)c1ccc(CNc2cc(C)nc3ccccc23)cc1", "measured on": "HCC-2998 colon", "growth, %": 42.1}
{"structure string": "CCCCNC(=O)Oc1ccc(/C(=C(/C)Cc2ccc(OC)cc2)c2ccc(OCCN3CCCCC3)cc2)cc1", "measured on": "HCC-2998 colon", "growth, %": 75.5}

-- ask Give the measured growth of "C/C(=N\O)c1ccc(NC(=O)CSc2nnc(-c3cc(-c4ccc(S(N)(=O)=O)cc4)nc4ccccc34)n2-c2ccccc2)cc1" .
-- reply 87.5

-- ask Any idea what its growth is? The compound is "Cc1ccc(S(=O)(=O)OCCCOS(=O)(=O)c2ccc(C)cc2)cc1"
-- reply 99.7

-- ask I'd like to know its growth. The compound in question is "COc1ccc(/C=C/C(=O)c2cc(OC)c(OC)c(OC)c2)cc1OCC(=O)Nc1nc2ccc(OC(F)(F)F)cc2s1"
-- reply 90.6

-- ask // lookup growth for "O=C(Nc1ncc(Cc2cc(C(F)(F)F)ccc2Cl)s1)c1cccs1"
-- reply 64.5

-- ask Reported growth for "N#Cc1c(Nc2ccc(N3CCOCC3)cc2)nc(SCC(=O)c2ccc(Br)cc2)nc1-c1ccccc1" : what is it?
-- reply 100

-- ask Tell me the measured growth of "CC1(C)N=C(N)N=C(N)N1c1cccc(CCc2ccccc2)c1" , please.
-- reply 2.34

* * *

Each entry below lists one item and its recorded growth value.
tested on: TK-10 renal; experiment: NCI-60 one-dose screen, 48 h (100 = growth as untreated, 0 = no growth, -100 = all killed); conditions: 10 µM unless noted
The panel holds about 83,000 compounds, 20% with a hit somewhere; the sample as a whole holds those more often.
Give just the numeric value; % need not be written.

Example cases with answers are listed next.
{"molecule": "C=C1C(=O)O[C@H]2[C@H]1CC/C(COC(=O)c1cc3cc(Cl)ccc3[nH]1)=C\\CC[C@@]1(C)O[C@@H]21", "units label": "%", "growth": -99.3}
{"molecule": "CCS/C(Nc1ccccc1)=C(\\C#N)C(=O)Nc1ccc(OC)cc1", "units label": "%", "growth": 47.7}
{"molecule": "COc1cccc(/C=C/C(=O)c2cccc(Nc3nc(Nc4ccccc4)nc(Nc4ccccc4)n3)c2)c1", "units label": "%", "growth": 77.5}
{"molecule": "O=P(O)(O)OCC1OC(n2cnc3c(NCc4ccco4)ncnc32)C(O)C1O (centres undefined)", "units label": "%", "growth": 60.9}
{"molecule": "C=C(CNCCc1ccc(O)cc1)[C@@H]1CC[C@]2(CO)CC[C@]3(C)[C@H](CC[C@@H]4[C@@]5(C)CCC(=O)C(C)(C)[C@@H]5CC[C@]43C)[C@@H]12", "units label": "%", "growth": 67.4}
{"molecule": "CCN1CCN(c2cc(C)nc(N(CCNc3ccnc4cc(Cl)ccc34)Cc3ccc4c(c3)OCO4)n2)CC1", "units label": "%", "growth": -48}
{"molecule": "Cc1c(CC(=S)N2CCOCC2)nnn1-c1cccc(C(F)(F)F)c1", "units label": "%", "growth": 104}
{"molecule": "COc1ccc(C(=O)Cn2c(C(=O)c3ccc(Cl)cc3)nc3ccccc32)cc1", "units label": "%", "growth": 99.6}
{"molecule": "O=C1NC(=O)/C(=C/c2c(-c3ccccc3)nc3sc(COc4ccccc4)nn23)S1", "units label": "%", "growth": 108}
{"molecule": "COc1ccc(C(=O)/C=C/c2ccc(N3CCCCC3)cc2)cc1OC", "units label": "%", "growth": 110}

Let us examine a further case.
-- ask I would be grateful if you could share the reported growth for Nc1nc2c(c3ncccc13)C(c1cccc(Cl)c1)Cc1ncccc1-2 (centres undefined) .
-- reply 55.8

* * *

test system: KM12 colon; experiment: NCI-60 one-dose screen, 48 h (100 = growth as untreated, 0 = no growth, -100 = all killed); conditions: 10 µM unless noted
Compounds without any hit were thinned out: in the full panel of roughly 83,000, 20% have a hit.
The entries below come with measured growth values attached.
Reply with just the number (in %).

{"molecule": "O=C(CCCCCNC(=O)c1cc(=O)c(O)co1)Nc1ccccc1", "value type": "growth", "units label": "%", "result": 100}

-- ask Any idea what its growth is? The molecule is "C=C1CC[C@@H]2C(C)(C)[C@@H](O)CC[C@@]2(C)[C@@H]1COc1ccc2ccc(=O)oc2c1"
-- reply 70

-- ask Item under review: CC(C)CCN(CCC(C)C)CC(O)c1cc2c(c3ccccc13)CCCC2 (stereo not given) . Reported growth?
-- reply 64.6

-- ask Requested field: growth. Item: "COc1ccc2c(c1)c(-c1nc(-c3c[nH]c4ncccc34)cs1)cn2CCO"
-- reply 20.7

-- ask Look up growth for this molecule: "COc1cc(-c2nc3cc(Cl)c(Cl)cc3[nH]2)ccc1OCC(=O)N=Nc1c(O)[nH]c2ccc(Cl)cc12"
-- reply 9.24

* * *

tested on: ACHN renal; assay: NCI-60 one-dose screen, 48 h (100 = growth as untreated, 0 = no growth, -100 = all killed); details: 10 µM unless noted
About 83,000 compounds went through this panel and 20% of them were active in at least one assay; those are over-represented in the sample as a whole.
# growth annotations
Express the result in % but write the number alone.

{"compound": "Cc1ccc2nc(/C(C#N)=C(/CCCO)NC(Cc3ccccc3)C(=O)OCc3ccccc3)[nH]c(=O)c2c1 (stereo not given)", "result": 107}
{"compound": "COc1ccc(CCN(CC(=O)N(CC(N)=O)C2CCC[C@@H]2OCc2ccccc2)C(=O)CN(C(=O)CN(CCc2ccc(Cl)cc2)C(=O)CN(C(=O)CN(C)Cc2ccccc2F)[C@H](C)C2CCCCC2)[C@H](C)C2CCCCC2)cc1OC (stereo not given in full)", "result": 28.8}
{"compound": "Cn1cc(-c2csc(-c3cn(CCCN4CCOCC4)c4ccccc34)n2)c2cccnc21", "result": 93.7}
{"compound": "CCOC(=O)C(=CNc1cnc(Nc2ccc(N3CCOCC3)cc2)nc1Oc1ccc(OC)cc1)C(=O)OCC", "result": 19}

Next, consider the following compound.
-- ask Could you share what growth was measured for "CC1(C)[C@@H](O[C@@H]2OC[C@@H](O[C@@H]3O[C@H](CO)[C@@H](O)[C@H](O)[C@H]3O[C@@H]3OC[C@@H](O)[C@H](O)[C@H]3O)[C@H](O)[C@H]2O[C@@H]2O[C@H](CO)[C@@H](O)[C@H](O)[C@H]2O)CC[C@]2(C)[C@H]3CC[C@]45OC[C@@]6(CC[C@](C)(C=O)C[C@H]64)[C@H](O)C[C@@]5(C)[C@]3(C)CC[C@@H]12" , tested on ACHN renal?
-- reply -93.7
